# System: Mycobacterium tuberculosis
# Method Summary: Antimycobacterial activity against Mycobacterium bovis BCG
# Assay type: functional, organism-based
# Experimental Context: variant bovis BCG
Here, each record is paired with measured MIC data.
Test Readout: MIC (µM)

- Chemical String: "CO[C@H]1[C@H](O[C@H]2C[C@](C)(O)C(=O)c3cc4c(c(O)c32)C(=O)c2c(O)cccc2C4=O)O[C@@H](C)[C@H](O)[C@H]1O"
  Test Readout: "MIC"
  Number: 10
- Chemical String: "CO[C@H]1[C@H](O[C@@H]2c3c(cc4c(c3O)C(=O)c3c(O)cccc3C4=O)C(=O)[C@@](C)(O)[C@H]2OC)O[C@@H](C)[C@H](O)[C@H]1O"
  Test Readout: "MIC"
  Number: 30
- Chemical String: "CO[C@H]1[C@H](O[C@H]2C[C@](C)(O)Cc3cc4c(c(O)c32)C(=O)c2c(O)cccc2C4=O)O[C@@H](C)[C@H](O)[C@H]1O"
  Test Readout: "MIC"
  Number: 30
- Chemical String: "C[C@@H]1O[C@@H](O[C@H]2C[C@](C)(O)Cc3cc4c(c(O)c32)C(=O)c2c(O)cccc2C4=O)[C@H](O)[C@H](O)[C@H]1O"
  Test Readout: "MIC"
  Number: 10

Reference source for all entries: ChEMBL document CHEMBL3576799
